# Protocol Description: Pharmacokinetic parameters for different drugs following single oral or intravenous administration in healthy subjects.
# Particulars: human, in vivo, iv, 100 mg
Assay Metric: dose excreted (%)

A: NC[C@H]1O[C@H](O[C@H]2[C@H](O)[C@@H](O[C@H]3O[C@H](CO)[C@@H](O)[C@H](N)[C@H]3O)[C@H](N)C[C@@H]2N)[C@H](N)C[C@@H]1O [TOBRAMYCIN]
B: CN(C)CCCN1c2ccccc2CCc2ccccc21.Cl [IMIPRAMINE HYDROCHLORIDE]
Qu. Please choose the item with the lower dose excreted value from this pair: A and B Use the label to indicate which entry you chose.
Ans. B
(B: 2%, A: 90%)
